The reported numbers originate from patent US20190248902A1.

Biological target: T1, human ASGR-1 (human, UniProt P07306 1-291)
T1 construct: Stably expressed on CHO-S cells (CHO-S:huASGR-1); The method text says human or mouse ASGR-1 cells were used; also called huASGR-1; hASGR-1
T1 sequence: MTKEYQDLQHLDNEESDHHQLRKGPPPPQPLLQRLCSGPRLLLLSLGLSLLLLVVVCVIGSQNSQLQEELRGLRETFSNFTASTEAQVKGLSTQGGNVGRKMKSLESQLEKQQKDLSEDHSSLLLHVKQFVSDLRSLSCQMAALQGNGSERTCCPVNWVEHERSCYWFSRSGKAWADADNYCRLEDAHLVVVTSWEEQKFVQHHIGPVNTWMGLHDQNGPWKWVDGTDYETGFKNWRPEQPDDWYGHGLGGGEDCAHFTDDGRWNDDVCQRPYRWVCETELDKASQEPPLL
Assay: FACS ligand blocking on CHO-S ASGR-1 cells; labelled ligand biotin-GalNAc-PAA (synthetic sugar)
pIC50: −log10 of the molar value.
Measured pIC50 by item
MEASUREMENT KIND: pIC50

- BINDER: "218G4 (antibody, V domains shown) VH: QVQLVESGGGVVQPGRSLRLSCAASGFTFSSYGLHWVRQAPGKGLEWVAVIWYDGSNKYYADSVKGRFTISRDNSKNTLYLQMNSLRVEDTAVYYCANWYYYYYGMDVWGQGTTVTVSS VL: QSVLTQPPSVSAAPGQKVTISCSGSSSNIGNNYVSWYQQLPGTAPKLLLYDSNKRPSGIPARFSGSKSGTSATLGITGLQTGDEADYYCGTWDSSLNTVVFGGGTKLTVL"
  QUANTITATIVE READOUT: 7.15
- BINDER: "4A2 (antibody, V domains shown) VH: QVQLVQSGTEVKKPGASVKVSCKASGYTFTNYDINWVRQATGQGLEWMGWMHPNSGNTGYAQKFQGRVTLTRNTSISTAYMELSSLRSEDTAVYYCASSSGWYYFDYWGQGTLVTVSS VL: DIVMTQSPDSLAVSLGERATINCKSSQSILHSSNNNNYLAWFQQKPGQPPKLLLYWASTRESGVPDRFSGSGSGTDFTLTISSLQPEDVAVYYCQQYYNTPVTFGPGTKVGIK"
  QUANTITATIVE READOUT: 7.27
- BINDER: "56E5 (antibody, V domains shown) VH: QVQLVQSGAEVKKPGASVKVSCQASGYTFTGYHMHWVRQAPGQGLEWMGWINPNNNATNYAQKFQGRVTMTRDTSISTAYMELRRLRSDDTAVYHCARDGTSSFDYWGQGTLVTVSS VL: DIQMTQSPSSVSASVGDRVTITCRASQGIRKWLAWYQQKPGKAPKLLIYAASSLQSGVPSRFSGSGSGTDFTLTISSLQPEDFATYYCQQANSFPFTFGPGTKVDIK"
  QUANTITATIVE READOUT: 7.35
- BINDER: "202A3 (antibody, V domains shown) VH: QVQLEQSGAEVKKPGASVKVSCKASGYTFTSYDINWVRQATGQGLEWLGWMNPKRGNTGYAQKFQGRVTMTRNTSISTAHMELSSLRSEDTAVYYCARGRYSREDYYYYYDMDVWGQGTTVTVSS VL: DIQMSQSPSSLSASVGDRVTITCRASQGIRNDLGWYQQKPGKAPKRLICAASRLQSGVPSRFSGSGSGTEFTLTISSLQPEDFAIYYCLQHHDYPFTFGPGTKVDIK"
  QUANTITATIVE READOUT: 7.49
- BINDER: "72G9 (antibody, V domains shown) VH: EVQLVESGGGLVKPGGSLRLSCAASGFTFSSYSMNWVRQAPGKGLEWVSSISGSSSYIYYADSVKGRFTISRDNAKNSLYLQMNSLRAEDTAVYFCARGGSRGFDPWGQGTLVTVSS VL: DIQMTQSPSSLSASVGDRVTITCRASQSITSYLNWYQQKPGKAPKLLIYTASSLQSGVPSRFSGSGSGTDFTLTISSLQPEDFATYYCQQSHSFPFTFGPGTKVDIK"
  QUANTITATIVE READOUT: 7.62
